The measurements presented in this section are drawn from patent US10385055B2.

- Target Entity: hERG (Homo sapiens, UniProt Q12809)
- Construct: host or cells: Chinese Hamster Ovary K1 cells
- Sequence (Q12809 whole entry): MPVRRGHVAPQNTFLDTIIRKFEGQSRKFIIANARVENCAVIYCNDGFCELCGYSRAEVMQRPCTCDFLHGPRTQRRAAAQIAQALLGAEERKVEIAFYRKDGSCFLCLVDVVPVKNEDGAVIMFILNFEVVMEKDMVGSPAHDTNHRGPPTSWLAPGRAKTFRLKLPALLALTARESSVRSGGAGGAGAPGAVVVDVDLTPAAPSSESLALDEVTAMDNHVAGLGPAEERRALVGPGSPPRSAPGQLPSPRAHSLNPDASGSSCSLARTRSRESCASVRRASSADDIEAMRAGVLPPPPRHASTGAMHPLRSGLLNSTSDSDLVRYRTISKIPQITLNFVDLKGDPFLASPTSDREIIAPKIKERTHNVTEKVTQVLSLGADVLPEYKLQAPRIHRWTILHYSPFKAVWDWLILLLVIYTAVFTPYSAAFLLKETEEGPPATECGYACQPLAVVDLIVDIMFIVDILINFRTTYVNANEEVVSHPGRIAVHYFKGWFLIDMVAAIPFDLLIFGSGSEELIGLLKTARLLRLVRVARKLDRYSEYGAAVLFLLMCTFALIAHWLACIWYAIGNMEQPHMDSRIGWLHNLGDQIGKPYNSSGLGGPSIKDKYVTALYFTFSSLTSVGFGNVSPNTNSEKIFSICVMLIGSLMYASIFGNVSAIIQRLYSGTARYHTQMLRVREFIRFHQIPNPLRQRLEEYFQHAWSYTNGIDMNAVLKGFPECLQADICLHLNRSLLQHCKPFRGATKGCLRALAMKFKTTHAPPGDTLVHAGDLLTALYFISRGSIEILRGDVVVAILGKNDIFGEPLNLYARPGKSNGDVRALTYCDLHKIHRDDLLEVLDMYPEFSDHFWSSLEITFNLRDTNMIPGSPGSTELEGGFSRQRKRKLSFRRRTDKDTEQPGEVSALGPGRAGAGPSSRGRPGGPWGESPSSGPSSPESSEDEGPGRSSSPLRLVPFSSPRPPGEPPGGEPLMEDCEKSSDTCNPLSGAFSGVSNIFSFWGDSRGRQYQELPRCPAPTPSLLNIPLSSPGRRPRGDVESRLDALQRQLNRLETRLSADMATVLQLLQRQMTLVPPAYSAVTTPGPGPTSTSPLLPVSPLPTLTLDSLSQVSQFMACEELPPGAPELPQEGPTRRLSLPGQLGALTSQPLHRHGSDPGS
- Method Summary: hERG inhibition, Cerep automated patch-clamp assay in Chinese Hamster Ovary K1 cells
- Type: cell-based
- Conditions: CHO K1 cells, tail current, read-out: hREG IC50
Readout Label: IC50 (µM)
Write the number in µM without appending the unit.

>  <Compound>
CNc1cc(F)cc2c1[nH]c1nc(Oc3cnc(C)nc3)nc(N3CC4CC3CC4N)c12 (centres unmarked)

>  <Measurement>
4

$$$$

Q: What does the record list as IC50 for CNc1cc(F)cc2c1[nH]c1nc(Oc3cnc(C)nc3)nc(N3CC4CC3CC4O)c12 (centres unmarked) ?
Result: 71

Q: What does the record list as IC50 for CNc1cc(F)cc2c1[nH]c1nc(Oc3cnc(C)nc3)nc(N3CC4(CCC4N)C3)c12 (centres unmarked) ?
Result: 16

Q: What does the record list as IC50 for CNc1cc(F)cc2c1[nH]c1nc(Oc3cnc(C)nc3)nc(N3CC4CC(O)C4C3)c12 (centres unmarked) ?
Result: 20

###

- Method Summary: Dog oral bioavailability
- Conditions: in vivo, read-out: Dog % F
Readout Label: bioavailability (%)
Write the number in % without appending the unit.

Q: What does the record list as bioavailability for CNc1cc(F)cc2c1[nH]c1nc(Oc3cnc(C)nc3)nc(N3C[C@H]4C[C@@H](O)[C@H]4C3)c12 [1.3] ?
Result: 50

###

- Method Summary: In vivo mouse PK, oral bioavailability
- Conditions: plasma, AUC oral / AUC intravenous, read-out: Mouse % F
Readout Label: bioavailability (%)
Write the number in % without appending the unit.

Q: What does the record list as bioavailability for CNc1cc(F)cc2c1[nH]c1nc(Oc3cnc(C)nc3)nc(N3C[C@@H]4[C@@H](O)[C@@H]4C3)c12 [1.4] ?
Result: 15

Q: What does the record list as bioavailability for CNc1cc(F)cc2c1[nH]c1nc(Oc3cnc(C)nc3)nc(N3C[C@H]4C[C@@H](O)[C@H]4C3)c12 [1.3] ?
Result: 25

###

- Target Entity: hERG (Homo sapiens, UniProt Q12809)
- Construct: host or cells: Chinese Hamster Ovary K1 cells
- Method Summary: hERG inhibition, Cerep automated patch-clamp assay in Chinese Hamster Ovary K1 cells
- Type: cell-based
- Conditions: CHO K1 cells, tail current, read-out: hREG IC50
A collection of molecules and their measured pIC50
Scale: negative log10 of molar concentration, which is what pIC50 denotes.

Check out these entries, answers already filled in.
>  <Molecule>
CNc1cc(F)cc2c1[nH]c1nc(Oc3cnc(C)nc3)nc(N3CC4C(O)C4C3)c12 (stereo not shown)

>  <pIC50>
4.39

$$$$
>  <Molecule>
CNc1cc(F)cc2c1[nH]c1nc(Oc3cnc(C)nc3)nc(N3CC4(CCC4O)C3)c12 (stereo not shown)

>  <pIC50>
4.00

$$$$
>  <Molecule>
CNc1cc(F)cc2c1[nH]c1nc(Oc3cnc(C)nc3)nc(N3CC4CC(N)C4C3)c12 (stereo not shown)

>  <pIC50>
6.00

$$$$

With those in mind, consider the next molecule.
Q: What does the record list as pIC50 for CNc1cc(F)cc2c1[nH]c1nc(Oc3cnc(C)nc3)nc(N3CC4C(N)C4C3)c12 (stereo not shown) ?
Result: 5.02
